B1: PhoQ; a variant is named by its letters at X, in order, P23837 (parent)
chain: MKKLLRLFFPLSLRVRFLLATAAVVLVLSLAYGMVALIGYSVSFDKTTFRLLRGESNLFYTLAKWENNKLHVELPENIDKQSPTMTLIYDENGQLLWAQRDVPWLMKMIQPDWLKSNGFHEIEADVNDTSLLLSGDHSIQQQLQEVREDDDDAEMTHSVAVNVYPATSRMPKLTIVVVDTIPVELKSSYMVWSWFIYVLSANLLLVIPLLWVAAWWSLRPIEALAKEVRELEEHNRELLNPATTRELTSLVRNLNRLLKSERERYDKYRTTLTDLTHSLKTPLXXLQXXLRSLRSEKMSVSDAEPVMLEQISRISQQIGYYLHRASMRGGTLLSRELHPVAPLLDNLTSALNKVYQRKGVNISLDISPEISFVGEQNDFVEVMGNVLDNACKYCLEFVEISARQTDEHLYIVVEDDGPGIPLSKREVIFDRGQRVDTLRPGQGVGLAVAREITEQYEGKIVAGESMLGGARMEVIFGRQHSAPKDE

Variants of: B1
Test: enrichment ratio after two sorts for PhoP signalling (ratio (wild type AVST 3.29)); higher = more functional
Conditions: with PhoP (E. coli)
Over roughly 140,000 sequences, “enrichment ratio after two sorts for PhoP signalling” has its median near 0; the highest 2% begin near 11. What follows is part of a selection rich in the highest values, with near analogues and random picks from the rest.
OBSERVED PROPERTY: enrichment ratio

Please review the entries below; each comes with its answer.
- VARIANT: "MCYQ"
  enrichment ratio: 17.2
- VARIANT: "RGGM"
  enrichment ratio: "≤ 0.25"
- VARIANT: "FTRG"
  enrichment ratio: "≤ 0.25"
- VARIANT: "MYEQ"
  enrichment ratio: "≤ 0.25"

Query: Quick one: enrichment ratio for "AKAQ" ?
Result: 7.28

Query: Likewise for "TDCL" ?
Result: 1.96

The measurements presented in this section are drawn from a collection of fitness landscapes (doi:10.1126/science.1257360).
